The following compounds are listed with their measured selectivity ratio values.
experimentDescription: Selectivity index, ratio of CC50 for cytotoxicity against human MT4 cells to EC50 for antiviral activity against HIV1 RES056 mutant infected in human MT4 cells
runConditions: MT4 cells

compound: Cc1cc(/C=C/C#N)cc(C)c1Oc1ccnc(Nc2ccc(N3CCC(C(F)(F)F)CC3)c(C#N)c2)n1
inequalitySymbol: >
selectivity ratio: 14
--
compound: Cc1cc(/C=C/C#N)cc(C)c1Oc1ccnc(Nc2ccc(N3CCN(S(N)(=O)=O)CC3)c(C#N)c2)n1
inequalitySymbol: =
selectivity ratio: 26
--
compound: Cc1cc(/C=C/C#N)cc(C)c1Oc1ccnc(Nc2ccc(N3CC(F)C3)c(C#N)c2)n1
inequalitySymbol: =
selectivity ratio: 328
--
compound: Cc1cc(/C=C/C#N)cc(C)c1Oc1ccnc(Nc2ccc(N3CCC(S(C)(=O)=O)CC3)c(C#N)c2)n1
inequalitySymbol: =
selectivity ratio: 8
--
compound: Cc1cc(/C=C/C#N)cc(C)c1Oc1ccnc(Nc2ccc(N3CCSCC3=O)c(C#N)c2)n1
inequalitySymbol: =
selectivity ratio: 49
--
compound: Cc1cc(/C=C/C#N)cc(C)c1Oc1ccnc(Nc2ccc(N3CC[S+]([O-])CC3=O)c(C#N)c2)n1 (stereo not drawn)
inequalitySymbol: =
selectivity ratio: 9
--
compound: Cc1cc(/C=C/C#N)cc(C)c1Oc1ccnc(Nc2ccc(N3CCN(C=O)CC3)c(C#N)c2)n1
inequalitySymbol: =
selectivity ratio: 17
--
compound: Cc1cc(/C=C/C#N)cc(C)c1Oc1ccnc(Nc2ccc(N3CCC(C#N)CC3)c(C#N)c2)n1
inequalitySymbol: >
selectivity ratio: 30

---

The following compounds are listed with their measured pEC50 values.
System: Human immunodeficiency virus 1
experimentDescription: Antiviral activity against HIV1 harboring K103 N mutant infected in human MT4 cells assessed as reduction in virus induced cytopathic effect incubated for 5 days by Spectrophotometric based MTT assay
Format: functional, organism-based
runConditions: Human immunodeficiency virus 1, MT4, 120 h
pEC50: −log10 of the molar value.

molecule: Cc1cc(/C=C/C#N)cc(C)c1Oc1ccnc(Nc2ccc(N3CCS(=O)(=O)CC3=O)c(C#N)c2)n1
pEC50: 8.52

molecule: Cc1cc(/C=C/C#N)cc(C)c1Oc1ccnc(Nc2ccc(N3CC[S+]([O-])CC3)c(C#N)c2)n1
pEC50: 8.40

molecule: CSC1CN(c2ccc(Nc3nccc(Oc4c(C)cc(/C=C/C#N)cc4C)n3)cc2C#N)C1
pEC50: 8.22

molecule: O=C1Nc2ccc(Cl)cc2[C@@](C#CC2CC2)(C(F)(F)F)O1
pEC50: 7.00

molecule: Cc1cc(/C=C/C#N)cc(C)c1Oc1ccnc(Nc2ccc(N3CC(F)C3)c(C#N)c2)n1
pEC50: 8.00

molecule: COC1CCN(c2ccc(Nc3nccc(Oc4c(C)cc(/C=C/C#N)cc4C)n3)cc2C#N)CC1
pEC50: 7.89

molecule: Cc1cc(/C=C/C#N)cc(C)c1Oc1ccnc(Nc2ccc(N3CCSCC3)c(C#N)c2)n1
pEC50: 8.22

molecule: Cc1cc(/C=C/C#N)cc(C)c1Oc1ccnc(Nc2ccc(N3CCOCC3=O)c(C#N)c2)n1
pEC50: 8.40

molecule: Cc1ccnc2c1NC(=O)c1cccnc1N2C1CC1
pEC50: 5.05

molecule: Cc1cc(/C=C/C#N)cc(C)c1Oc1ccnc(Nc2ccc(N3CCC(C#N)CC3)c(C#N)c2)n1
pEC50: 7.89

molecule: Cc1cc(C#N)cc(C)c1Oc1nc(Nc2ccc(C#N)cc2)nc(N)c1Br
pEC50: 8.30

---

The following compounds are listed with their measured selectivity ratio values.
experimentDescription: Selectivity index, ratio of CC50 for cytotoxicity against human MT4 cells to EC50 for antiviral activity against wild type HIV1 IIIB infected in human MT4 cells
runConditions: MT4 cells

compound: Cc1cc(/C=C/C#N)cc(C)c1Oc1ccnc(Nc2ccc(N3CC[S+]([O-])CC3=O)c(C#N)c2)n1 (stereo not drawn)
inequalitySymbol: =
selectivity ratio: 1780
//
compound: Cc1cc(/C=C/C#N)cc(C)c1Oc1ccnc(Nc2ccc(N3CCN(S(C)(=O)=O)CC3=O)c(C#N)c2)n1
inequalitySymbol: =
selectivity ratio: 5910
//
compound: CC(=O)C1CCN(c2ccc(Nc3nccc(Oc4c(C)cc(/C=C/C#N)cc4C)n3)cc2C#N)CC1
inequalitySymbol: =
selectivity ratio: 1070
//
compound: Cc1cc(/C=C/C#N)cc(C)c1Oc1ccnc(Nc2ccc(N3CCSCC3)c(C#N)c2)n1
inequalitySymbol: >
selectivity ratio: 30300
//
compound: Cc1cc(/C=C/C#N)cc(C)c1Oc1ccnc(Nc2ccc(N3CCOCC3=O)c(C#N)c2)n1
inequalitySymbol: =
selectivity ratio: 9540
//
compound: Cc1cc(/C=C/C#N)cc(C)c1Oc1ccnc(Nc2ccc(N3CCC(F)(F)CC3)c(C#N)c2)n1
inequalitySymbol: >
selectivity ratio: 8290
//
compound: Cc1cc(/C=C/C#N)cc(C)c1Oc1ccnc(Nc2ccc(N3CCCCC3)c(C#N)c2)n1
inequalitySymbol: >
selectivity ratio: 6380
//
compound: Cc1cc(/C=C/C#N)cc(C)c1Oc1ccnc(Nc2ccc(N3CCC(C(F)(F)F)CC3)c(C#N)c2)n1
inequalitySymbol: >
selectivity ratio: 6100
//
compound: Cc1cc(/C=C/C#N)cc(C)c1Oc1ccnc(Nc2ccc(N3CCSCC3=O)c(C#N)c2)n1
inequalitySymbol: =
selectivity ratio: 3410
//
compound: CC(=O)N1CCN(c2ccc(Nc3nccc(Oc4c(C)cc(/C=C/C#N)cc4C)n3)cc2C#N)CC1
inequalitySymbol: =
selectivity ratio: 1280
//
compound: Cc1cc(/C=C/C#N)cc(C)c1Oc1ccnc(Nc2ccc(N3CC[S+]([O-])CC3)c(C#N)c2)n1
inequalitySymbol: =
selectivity ratio: 19300
//
compound: Cc1cc(/C=C/C#N)cc(C)c1Oc1ccnc(Nc2ccc(N3CC(F)C3)c(C#N)c2)n1
inequalitySymbol: =
selectivity ratio: 20000
//
compound: Cc1cc(/C=C/C#N)cc(C)c1Oc1ccnc(Nc2ccc(N3CCCC3)c(C#N)c2)n1
inequalitySymbol: =
selectivity ratio: 5010
//
compound: Cc1cc(/C=C/C#N)cc(C)c1Oc1ccnc(Nc2ccc(N3CC(C#N)C3)c(C#N)c2)n1
inequalitySymbol: >
selectivity ratio: 3480
//
compound: Cc1cc(/C=C/C#N)cc(C)c1Oc1ccnc(Nc2ccc(N3CCC(C#N)CC3)c(C#N)c2)n1
inequalitySymbol: >
selectivity ratio: 4560
//
compound: CSC1CN(c2ccc(Nc3nccc(Oc4c(C)cc(/C=C/C#N)cc4C)n3)cc2C#N)C1
inequalitySymbol: >
selectivity ratio: 45200
//
compound: Cc1cc(/C=C/C#N)cc(C)c1Oc1ccnc(Nc2ccc(N3CCN(C)CC3)c(C#N)c2)n1
inequalitySymbol: =
selectivity ratio: 195
//
compound: COC1CN(c2ccc(Nc3nccc(Oc4c(C)cc(/C=C/C#N)cc4C)n3)cc2C#N)C1
inequalitySymbol: >
selectivity ratio: 2050

---

The following molecules are listed with their measured selectivity ratio values.
experimentDescription: Selectivity index, ratio of CC50 for cytotoxicity against human MT4 cells to EC50 for antiviral activity against HIV1 RES056 mutant infected in human MT4 cells
runConditions: MT4 cells

molecule: Cc1cc(/C=C/C#N)cc(C)c1Oc1ccnc(Nc2ccc(N3CC[S+]([O-])CC3)c(C#N)c2)n1
selectivity ratio: 45
//
molecule: CC(=O)C1CCN(c2ccc(Nc3nccc(Oc4c(C)cc(/C=C/C#N)cc4C)n3)cc2C#N)CC1
selectivity ratio: 3
//
molecule: CC(=O)N1CCN(c2ccc(Nc3nccc(Oc4c(C)cc(/C=C/C#N)cc4C)n3)cc2C#N)CC1
selectivity ratio: 12

---

experimentDescription: Selectivity index, ratio of CC50 for cytotoxicity against human MT4 cells to EC50 for antiviral activity against wild type HIV1 IIIB infected in human MT4 cells
runConditions: MT4 cells
testReadout: selectivity ratio

molecule: Cc1cc(/C=C/C#N)cc(C)c1Oc1ccnc(Nc2ccc(N3CCC(S(C)(=O)=O)CC3)c(C#N)c2)n1
inequalitySymbol: =
experimentalValue: 725

molecule: Cc1cc(/C=C/C#N)cc(C)c1Oc1ccnc(Nc2ccc(N3CCN(S(C)(=O)=O)C3=O)c(C#N)c2)n1
inequalitySymbol: =
experimentalValue: 29900

molecule: Cc1cc(/C=C/C#N)cc(C)c1Oc1ccnc(Nc2ccc(N3CCS(=O)(=O)CC3=O)c(C#N)c2)n1
inequalitySymbol: =
experimentalValue: 8130

molecule: Cc1cc(/C=C/C#N)cc(C)c1Oc1ccnc(Nc2ccc(N3CCN(S(N)(=O)=O)CC3)c(C#N)c2)n1
inequalitySymbol: =
experimentalValue: 1540

molecule: COP(=O)(OC)N1CCN(c2ccc(Nc3nccc(Oc4c(C)cc(/C=C/C#N)cc4C)n3)cc2C#N)C(=O)C1
inequalitySymbol: =
experimentalValue: 94

molecule: COC1CCN(c2ccc(Nc3nccc(Oc4c(C)cc(/C=C/C#N)cc4C)n3)cc2C#N)CC1
inequalitySymbol: =
experimentalValue: 1080

molecule: Cc1cc(/C=C/C#N)cc(C)c1Oc1ccnc(Nc2ccc(N3CCN(C=O)CC3)c(C#N)c2)n1
inequalitySymbol: =
experimentalValue: 4350

molecule: Cc1cc(/C=C/C#N)cc(C)c1Oc1ccnc(Nc2ccc(N3CCC(F)CC3)c(C#N)c2)n1
inequalitySymbol: >
experimentalValue: 18800
